// reported RP-LC retention time per item
assay comment: gradient 5% acetonitrile 3 min, to 50% in 2 min, to 85% in 15 min, held 3 min, 100 µL/min
condition info: column: Zorbax Extend-C18 2.1 x 50 mm; eluents: water / acetonitrile, 0.1% formic acid
readout: RP-LC retention time (s)

>  <compound>
CCOC(=O)c1ccc(NC(=O)N2CCN(c3nc4ccccc4n3C)CC2)cc1

>  <value observed>
658

$$$$
>  <compound>
CCN1C(=O)c2cccnc2Sc2cc(NC(=O)c3cc(C)cc(C)c3)ccc21

>  <value observed>
918

$$$$
>  <compound>
CCC(CO)NCc1ccc(-c2ccc(Br)cc2)o1 (stereo not given)

>  <value observed>
683

$$$$
>  <compound>
COC(=O)c1ccccc1Nc1c(-c2ccccn2)nc2cnccn12

>  <value observed>
816

$$$$
>  <compound>
Cc1cc(C(=O)NC2CCc3nnc(C4CC4)n3CC2)c(C)n1Cc1ccco1 (stereo not given)

>  <value observed>
660

$$$$

====

assay comment: gradient 5% acetonitrile 3 min, to 50% in 2 min, to 85% in 15 min, held 3 min, 100 µL/min
condition info: column: Zorbax Extend-C18 2.1 x 50 mm; eluents: water / acetonitrile, 0.1% formic acid
// reported RP-LC retention time per item

>  <compound>
O=C(NCCCN1CCc2ccccc2C1)c1ccnc(-c2cccs2)c1

>  <endpoint unit>
s

>  <RP-LC retention time>
646

$$$$
>  <compound>
CCS(=O)(=O)N1CC(=O)N(c2ccc(F)cc2C)C(C)(C(=O)NCc2ccccc2)C1 (configuration not stated)

>  <endpoint unit>
s

>  <RP-LC retention time>
818

$$$$
>  <compound>
CCCN1C(=O)CCc2cc(NC(=O)c3ccn(CC)n3)ccc21

>  <endpoint unit>
s

>  <RP-LC retention time>
756

$$$$
>  <compound>
Cc1nnc(-c2nnc(NCC3CCCCC3)c3ccccc23)o1

>  <endpoint unit>
s

>  <RP-LC retention time>
772

$$$$
>  <compound>
Cc1nn(C)cc1C(=O)N(Cc1ccccc1)c1ccccn1

>  <endpoint unit>
s

>  <RP-LC retention time>
674

$$$$
>  <compound>
O=C(NCCC1CCN(C(=O)Nc2cc(F)ccc2F)CC1)C1CCCC1

>  <endpoint unit>
s

>  <RP-LC retention time>
769

$$$$
>  <compound>
COc1ccc(-c2nnc(-c3cc(S(=O)(=O)N(C)C)ccc3Cl)o2)cc1

>  <endpoint unit>
s

>  <RP-LC retention time>
970

$$$$
>  <compound>
Cc1nsc2ncc(C(=O)N3CCOCC3)c(N3CCC(C(=O)Nc4ccc(Cl)cc4)CC3)c12

>  <endpoint unit>
s

>  <RP-LC retention time>
846

$$$$
>  <compound>
CN(C)S(=O)(=O)c1ccc(C(=O)OCc2cc(-c3ccc(Cl)cc3)on2)cc1

>  <endpoint unit>
s

>  <RP-LC retention time>
1090

$$$$
>  <compound>
Cc1ccc(Nc2nc(C(=O)NCc3ccco3)nc3ccccc23)cc1

>  <endpoint unit>
s

>  <RP-LC retention time>
779

$$$$
>  <compound>
COc1ccc(N2CCOCC2)c2sc(NC(=O)N3CCC(C)(O)CC3)nc12

>  <endpoint unit>
s

>  <RP-LC retention time>
732

$$$$
>  <compound>
CCOC(=O)c1ccc(Nc2nc(N3CCCC3)nc(N3CCCC3)n2)cc1

>  <endpoint unit>
s

>  <RP-LC retention time>
772

$$$$
